Reference source for all entries: PubChem BioAssay (EPA / NIEHS)

measurement_description: TOX21_p53_BLA_p4_viability: Viability Assessment in the Tox21 HCT-116 p53 Agonism Beta-lactamase Assay, Phase 4 (AID 2283597);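 note: hits lower the luminescence signal meaning cytotoxicity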
Inconclusive results are not listed. Active and inactive are the calls of the source. Rule for the calls: active = hit-call score of the fitted dose curve at least 0.9, where 1 is the maximum; inconclusive = response in the unintended direction; inactive = score below 0.9.
Select the correct class. Options are active, inactive and nothing else.

compound	label_value
N#C[C@@H]1C[C@@H]2C[C@@H]2N1C(=O)[C@@H](N)C12CC3CC(CC(O)(C3)C1)C2	inactive

Prompt line: Recorded test call requested for O=C(O)Cc1cn(-c2ccccc2)nc1-c1ccc(Cl)cc1
Response line: inactive

---

measurement_description: CCTE_Shafer_MEA_dev_per_network_spike_spike_percent: CCTE's Neural Network Formation Assay for Percent of Spikes in a Network Spike, Shafer Lab (AID 2284054)
Activity calls are given as the source filed them. The calls were made as follows: active = hit-call score of the fitted dose curve at least 0.9, where 1 is the maximum; inactive = score below 0.9.
Select the correct class. Options are active, inactive and nothing else.

Prompt line: Recorded test call requested for [Cl-].[Cl-].[NH2-].[NH2-].[Pt+4]
Response line: inactive
